procedureDetails: in vivo
conditionDetails: Sprague-Dawley, rat, po, 10 mg/kg
reportedProperty: bioavailability
Provide the measurement as a number trailed by its unit.

Q. Identify the reported bioavailability for the following entry. C=CC(=O)Nc1cccc(-n2c(=O)c(C3CCCCC3)nc3cnc(Nc4cccc(OCCOC)c4)nc32)c1
A. 2.31%

* * *

procedureDetails: in vivo
conditionDetails: Sprague-Dawley, rat, iv, 1 mg/kg
reportedProperty: Vd (L/kg)
Numeric answer only, unit L/kg assumed.

Q. Determine from records and report Vd for C=CC(=O)Nc1cccc(-n2c(=O)c(C3CCCCC3)nc3cnc(Nc4cccc(OCCOC)c4)nc32)c1
A. 1.16

* * *

procedureDetails: in vivo
conditionDetails: Sprague-Dawley, rat, iv, 1 mg/kg
reportedProperty: clearance (mL/min/kg)
Numbers only; they are read as mL/min/kg.

Q. Answer with the recorded clearance of C=CC(=O)Nc1cccc(-n2c(=O)c(C3CCCCC3)nc3cnc(Nc4cccc(OCCOC)c4)nc32)c1 only.
A. 58.2

* * *

procedureDetails: in vivo
conditionDetails: Sprague-Dawley, rat, po, 10 mg/kg
reportedProperty: AUC(0-t) (ng·h/mL)
Output spec: scalar in ng·h/mL, unitless text.

Q. Answer with the recorded AUC(0-t) for the compound listed here: C=CC(=O)Nc1cccc(-n2c(=O)c(C3CCCCC3)nc3cnc(Nc4cccc(OCCOC)c4)nc32)c1
A. 66.9
